Value source: paper PMC8151276

Target: ADRA2C (Homo sapiens, UniProt P18825)
Construct: purchased Promega (in-house HiBiT-GPCR construct library, NanoBRET)
Sequence (P18825 whole entry): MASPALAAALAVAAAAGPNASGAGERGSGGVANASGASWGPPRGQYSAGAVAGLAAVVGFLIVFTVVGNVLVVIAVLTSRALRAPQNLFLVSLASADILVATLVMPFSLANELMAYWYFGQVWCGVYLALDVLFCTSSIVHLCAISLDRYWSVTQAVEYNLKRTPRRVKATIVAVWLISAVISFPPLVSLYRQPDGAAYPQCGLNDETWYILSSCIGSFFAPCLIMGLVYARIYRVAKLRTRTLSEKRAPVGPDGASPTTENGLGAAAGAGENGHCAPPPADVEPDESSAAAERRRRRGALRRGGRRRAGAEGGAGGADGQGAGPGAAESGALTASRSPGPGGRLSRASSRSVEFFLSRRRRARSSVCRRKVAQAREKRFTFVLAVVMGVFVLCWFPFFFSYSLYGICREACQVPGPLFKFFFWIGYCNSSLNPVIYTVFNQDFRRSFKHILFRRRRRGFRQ
Test: NanoBRET screen HiBiT-ADRA2C in HEK293
Type: binding
Details: ADRA2C; tracer 0.1μM
measure: NanoBRET Fold Response

Ask | Short answer please: NanoBRET Fold Response, ADRA2C (Homo sapiens, UniProt P18825), entry O=C(CCc1ccc2n1[B-](F)(F)[N+]1=C(c3ccc[nH]3)C=CC1=C2)NCc1ccc(C(=O)NCCOCCC(=O)N[C@@H]2CC[C@@]3(O)[C@H]4Cc5ccc(O)c6c5[C@@]3(CCN4CC3CC3)[C@H]2O6)cc1 [Naltrexone-3-NB590]
Reply | 0.99

Ask | Short answer please: NanoBRET Fold Response, ADRA2C (Homo sapiens, UniProt P18825), entry Cc1cc2c(s1)Nc1ccccc1N=C2N1CCN(CCCNC(=O)CCOCCOCCOCCOCCNC(=O)CCc2ccc3n2[B-](F)(F)[N+]2=C(c4ccc[nH]4)C=CC2=C3)CC1
Reply | 0.97

Ask | Short answer please: NanoBRET Fold Response, ADRA2C (Homo sapiens, UniProt P18825), entry Cc1nc2n(c(=O)c1CCN1CCC(c3noc4cc(F)ccc34)CC1)CCCC2OC(=O)NCCOCCOCCOCCOCCNC(=O)CCc1ccc2n1[B-](F)(F)[N+]1=C(c3ccc[nH]3)C=CC1=C2 (centres unmarked)
Reply | 1.59

Ask | Short answer please: NanoBRET Fold Response, ADRA2C (Homo sapiens, UniProt P18825), entry CC(C)N(CC[C@H](c1ccccc1)c1cc(CCNC(=O)CCOCCOCCOCCOCCNC(=O)CCc2ccc3n2[B-](F)(F)[N+]2=C(c4ccc[nH]4)C=CC2=C3)ccc1O)C(C)C
Reply | 0.85

Ask | Short answer please: NanoBRET Fold Response, ADRA2C (Homo sapiens, UniProt P18825), entry N#CN=C(NCCCOc1cccc(CN2CCCCC2)c1)NCCNC(=O)CCOCCOCCOCCOCCNC(=O)CCc1ccc2n1[B-](F)(F)[N+]1=C(c3ccc[nH]3)C=CC1=C2
Reply | 1.35

###

Molecular target: FZD1 (Homo sapiens)
Construct: purchased Promega (in-house HiBiT-GPCR construct library, NanoBRET)
Sequence (Q9UP38 70-647): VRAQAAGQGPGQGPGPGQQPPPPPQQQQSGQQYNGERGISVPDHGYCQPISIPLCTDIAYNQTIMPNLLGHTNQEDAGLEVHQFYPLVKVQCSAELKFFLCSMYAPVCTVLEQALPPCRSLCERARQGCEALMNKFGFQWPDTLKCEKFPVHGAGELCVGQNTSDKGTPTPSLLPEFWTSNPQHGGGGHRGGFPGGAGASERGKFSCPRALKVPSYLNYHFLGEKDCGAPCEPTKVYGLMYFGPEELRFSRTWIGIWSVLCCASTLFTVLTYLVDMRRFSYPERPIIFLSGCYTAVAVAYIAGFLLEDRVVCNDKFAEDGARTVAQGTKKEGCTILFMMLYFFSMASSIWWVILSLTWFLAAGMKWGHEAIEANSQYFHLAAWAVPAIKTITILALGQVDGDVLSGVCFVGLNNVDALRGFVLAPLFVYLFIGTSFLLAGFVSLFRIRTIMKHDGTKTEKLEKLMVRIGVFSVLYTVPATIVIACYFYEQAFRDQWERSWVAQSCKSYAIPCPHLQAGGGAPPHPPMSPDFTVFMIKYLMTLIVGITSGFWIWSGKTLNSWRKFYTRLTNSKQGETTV
Test: NanoBRET screen HiBiT-FZD1 in HEK293
Type: binding
Conditions: FZD1; tracer 1μM
For each of the molecules below, state its NanoBRET Fold Response.
Keep the answer to the number alone.

Ask | Reported NanoBRET Fold Response, molecule O=C(CCc1ccc2n1[B-](F)(F)[N+]1=C(c3ccc[nH]3)C=CC1=C2)NCc1ccc(C(=O)NCCOCCC(=O)N[C@@H]2CC[C@@]3(O)[C@H]4Cc5ccc(O)c6c5[C@@]3(CCN4CC3CC3)[C@H]2O6)cc1 [Naltrexone-3-NB590] : ____
Reply | 1.05

Ask | Reported NanoBRET Fold Response, molecule Cc1cc2c(s1)Nc1ccccc1N=C2N1CCN(CCCNC(=O)CCOCCOCCOCCOCCNC(=O)CCc2ccc3n2[B-](F)(F)[N+]2=C(c4ccc[nH]4)C=CC2=C3)CC1 [Olanzapine-a-2-NB590] : ____
Reply | 1.04

Ask | Reported NanoBRET Fold Response, molecule CCCn1c(=O)c2[nH]c(-c3ccc(OCC(=O)NCCNC(=O)CCOCCNC(=O)c4ccc(CNC(=O)CCc5ccc6n5[B-](F)(F)[N+]5=C(c7ccc[nH]7)C=CC5=C6)cc4)cc3)nc2n(CCC)c1=O [XAC-3-NB590] : ____
Reply | 1.33

Ask | Reported NanoBRET Fold Response, molecule CC(C)N(CC[C@H](c1ccccc1)c1cc(CCNC(=O)c2ccc(CNC(=O)CCc3ccc4n3[B-](F)(F)[N+]3=C(c5ccc[nH]5)C=CC3=C4)cc2)ccc1O)C(C)C [Tolterodine-BZ-NB590] : ____
Reply | 0.95

Ask | Reported NanoBRET Fold Response, molecule N#CN=C(NCCCOc1cccc(CN2CCCCC2)c1)NCCNC(=O)CCOCCOCCOCCOCCNC(=O)CCc1ccc2n1[B-](F)(F)[N+]1=C(c3ccc[nH]3)C=CC1=C2 [Aminopotentidine-2-NB590] : ____
Reply | 1.12

Ask | Reported NanoBRET Fold Response, molecule O=C(CCc1ccc2n1[B-](F)(F)[N+]1=C(c3ccc[nH]3)C=CC1=C2)NCCOCCOCCNC(=O)OCCOCCN1CCN(C2=Nc3ccccc3Sc3ccccc32)CC1 [Quetiapine-a-2-NB590] : ____
Reply | 0.96
